Examples of compounds with documented Ratio IC50 follow.
# Species on record: Homo sapiens
# measurement.notes: Selectivity index, ratio of IC50 for human recombinant MAOA to IC50 for human recombinant MAOB

CCOC(=O)c1ccc(NC(=O)c2cc3ccccc3oc2=O)cc1 | < 0.16
CC(C)NC(=O)c1cc2ccc(OCc3ccccc3)cc2oc1=O | < 0.63
O=C(Nc1ccccc1Cc1ccccc1)c1cc2ccc(OCc3ccc(F)cc3)cc2oc1=O | < 0.56

// next entry
The value of Ratio IC50 measured for the compound O=C(Cl)c1ccc(NC(=O)c2cc3ccccc3oc2=O)cc1 turned out to be < 0.1

###

# test.target: Amine oxidase [flavin-containing] A (Homo sapiens)
# measurement.notes: Inhibition of human recombinant MAOA expressed in BTI-TN-5B1-4 cells assessed as effect on H2O2 production from para-tyramine by fluorimetric method
# Format: cell-based
pIC50: −log10 of the molar value.
property.name: pIC50

COc1cc(NC(=O)c2cc3ccc(OCc4ccccc4)cc3oc2=O)cc(OC)c1 | 4.28
Cc1cccc(Cl)c1NC(=O)c1cc2ccc(OCc3ccccc3)cc2oc1=O | 4.30
Cc1ccc(NC(=O)c2cc3ccccc3oc2=O)cc1 | 4.71

1 = O=C(Nc1c(F)cccc1F)c1cc2ccccc2oc1=O
2 = N#Cc1c(F)c(F)c(NC(=O)c2cc3ccc(OCc4ccc(F)cc4)cc3oc2=O)c(F)c1F
*Q* Could you tell me which of these two has the smaller pIC50 figure? First: 1 Second: 2 # respond with the chosen item's label
*A* 2
(2: 4.23, 1: 4.89)

###

# test.target: Amine oxidase [flavin-containing] A (Homo sapiens)
# Sequence (P21397 whole entry): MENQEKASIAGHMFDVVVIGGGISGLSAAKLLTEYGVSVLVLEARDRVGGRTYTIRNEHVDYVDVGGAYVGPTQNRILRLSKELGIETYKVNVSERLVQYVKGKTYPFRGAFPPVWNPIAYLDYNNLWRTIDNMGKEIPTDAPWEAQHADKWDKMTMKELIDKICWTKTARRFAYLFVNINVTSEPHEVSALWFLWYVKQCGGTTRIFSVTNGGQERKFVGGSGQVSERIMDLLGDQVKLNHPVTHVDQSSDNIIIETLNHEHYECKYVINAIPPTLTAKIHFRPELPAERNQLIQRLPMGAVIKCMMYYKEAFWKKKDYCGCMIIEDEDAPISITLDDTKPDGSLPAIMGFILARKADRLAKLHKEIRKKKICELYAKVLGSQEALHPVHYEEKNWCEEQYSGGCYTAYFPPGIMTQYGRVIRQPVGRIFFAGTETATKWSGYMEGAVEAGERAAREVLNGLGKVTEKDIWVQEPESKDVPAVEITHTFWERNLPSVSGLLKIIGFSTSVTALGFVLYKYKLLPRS
# measurement.notes: Inhibition of human recombinant MAOA expressed in BTI-TN-5B1-4 cells assessed as effect on H2O2 production from para-tyramine by fluorimetric method
# Format: cell-based
property.name: IC50 (µM)

CS(=O)(=O)c1ccc(NC(=O)c2cc3ccccc3oc2=O)cc1 | 9.33
CCc1ccc(NC(=O)c2cc3ccccc3oc2=O)cc1 | 15.7
O=C(Nc1c(F)c(F)nc(F)c1F)c1cc2ccccc2oc1=O | 11.4

1 = O=C(NNc1ccccc1)c1cc2ccc(OCc3ccccc3)cc2oc1=O
2 = O=C(Cl)c1ccc(NC(=O)c2cc3ccccc3oc2=O)cc1
3 = N#Cc1c(F)c(F)c(NC(=O)c2cc3ccccc3oc2=O)c(F)c1F
4 = CC(C)c1ccc(NC(=O)c2cc3ccc(OCc4ccccc4)cc3oc2=O)cc1
*Q* Please list these in order of increasing IC50. Thank you! I would appreciate it if you listed the labels in the requested order.
*A* 2, 3, 1, 4

Taken from ChEMBL document CHEMBL1153941.
